Here's a batch of molecules along with measured IC50 for Cannabinoid receptor 1 (Rattus norvegicus, UniProt P20272).
Entry rule: numbers only, all in nM.

Field: example entries. Status: answers known.
molecule: O=C(NC1(C(F)(F)F)CCC1)c1nn(-c2ccc(Cl)cc2Cl)c(-c2ccc(Cl)cc2)c1Cn1cncn1
IC50 / nM: 4.67

molecule: CC(C)(C)NC(=O)c1nn(-c2ccc(Cl)cc2Cl)c(-c2ccc(Br)cc2)c1Cn1cncn1
IC50 / nM: 2.9

molecule: O=C(NC1(c2ccc(Cl)cc2)CC1)c1nn(-c2ccc(Cl)cc2Cl)c(-c2ccc(Br)cc2)c1Cn1cncn1
IC50 / nM: 2.8

Input line: Param readout = IC50; param system = Cannabinoid receptor 1 (Rattus norvegicus, UniProt P20272); param query = `O=C(NCc1ccccn1)c1nn(-c2ccccc2Cl)c(-c2ccc(Br)cc2)c1Cn1cncn1` ; response: value
Sequence (P20272 whole entry): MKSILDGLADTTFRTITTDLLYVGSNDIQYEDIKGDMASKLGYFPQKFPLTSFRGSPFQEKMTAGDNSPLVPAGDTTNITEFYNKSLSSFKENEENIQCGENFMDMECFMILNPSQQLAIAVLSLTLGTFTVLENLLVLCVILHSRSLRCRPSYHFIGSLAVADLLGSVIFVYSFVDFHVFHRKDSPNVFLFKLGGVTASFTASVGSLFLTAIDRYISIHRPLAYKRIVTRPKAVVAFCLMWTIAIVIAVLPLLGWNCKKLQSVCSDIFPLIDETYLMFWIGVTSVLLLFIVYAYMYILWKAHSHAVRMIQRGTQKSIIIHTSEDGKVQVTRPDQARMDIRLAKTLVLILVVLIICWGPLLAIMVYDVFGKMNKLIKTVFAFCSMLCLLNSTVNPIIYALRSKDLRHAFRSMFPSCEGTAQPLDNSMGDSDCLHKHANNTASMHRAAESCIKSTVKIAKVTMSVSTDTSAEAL
Output line: 63.4

Input line: Find the measured IC50: item CCN1CCCC1CNC(=O)c1nn(-c2ccc(Cl)cc2Cl)c(-c2ccc(Cl)cc2)c1Cn1cncn1 (stereo not drawn) , target or system Cannabinoid receptor 1 (Rattus norvegicus, UniProt P20272).
Output line: 4020

Input line: Any idea what IC50 came out for CC1CCCC(C)N1NC(=O)c1nn(-c2ccc(Cl)cc2Cl)c(-c2ccc(Cl)cc2)c1Cn1cncn1 (stereo not drawn) on Cannabinoid receptor 1 (Rattus norvegicus, UniProt P20272)?
Output line: 11.4

Input line: What value of IC50 on Cannabinoid receptor 1 (Rattus norvegicus, UniProt P20272) does `O=C(c1nn(-c2ccccc2Cl)c(-c2ccc(Br)cc2)c1Cn1cncn1)N1CCN(c2ccccc2)CC1` have?
Output line: 8.01

Input line: Enter reported IC50 observed with Cannabinoid receptor 1 (Rattus norvegicus, UniProt P20272) for CC(NC(=O)c1nn(-c2ccc(Cl)cc2Cl)c(-c2ccc(Br)cc2)c1Cn1cncn1)C(C)(C)C (stereo not drawn)
Output line: 4.1

====

# collection of IC50 values tested on Cannabinoid receptor 1 (Rattus norvegicus)
Just so you know, I need the unit written after the number.

Please review the following examples before continuing.
molecule: O=C(NN1CCCCC1)c1nn(-c2ccc(Cl)cc2Cl)c(-c2ccc(Cl)cc2)c1Cn1cncn1
IC50: 0.00383 µM

molecule: O=C(c1nn(-c2ccc(Cl)cc2Cl)c(-c2ccc(Br)cc2)c1Cn1cncn1)N1CCN(c2ncccn2)CC1
IC50: 0.0277 µM

Input line: Hi! What's the reported IC50 for `O=C(c1nn(-c2ccccc2Cl)c(-c2ccc(Br)cc2)c1Cn1cncn1)N1CCN(c2cccc(Cl)c2)CC1` on Cannabinoid receptor 1 (Rattus norvegicus)?
Output line: 0.00228 µM

Input line: Quick check: IC50 on Cannabinoid receptor 1 (Rattus norvegicus), item C[C@@H]1CCCC[C@@H]1NC(=O)c1nn(-c2ccc(Cl)cc2Cl)c(-c2ccc(Cl)cc2)c1Cn1cncn1 (single isomer, unassigned) ?
Output line: 0.0183 µM

====

// pIC50 collected for UniProt P20272
Scale note: pIC50 = -log10(concentration in M).

structure notation: O=C(NCC1CCCCC1)c1nn(-c2ccccc2Cl)c(-c2ccc(Cl)cc2)c1Cn1cncn1
measurement target: UniProt P20272
recorded value: 7.91

structure notation: O=C(NC1(C(F)(F)F)CC1)c1nn(-c2ccccc2Cl)c(-c2ccc(Br)cc2)c1Cn1cncn1
measurement target: UniProt P20272
recorded value: 8.04

structure notation: O=C(c1nn(-c2ccccc2Cl)c(-c2ccc(Br)cc2)c1Cn1cncn1)N1CCN(c2cccc(Cl)c2Cl)CC1
measurement target: UniProt P20272
recorded value: 8.65

Input line: What reported pIC50 corresponds to `CCC(C)(C)NC(=O)c1nn(-c2ccc(Cl)cc2Cl)c(-c2ccc(Cl)cc2)c1Cn1cncn1` on UniProt P20272?
Output line: 8.52
